assay: Displacement of [3H]clonidine from imidazoline receptor I-1 of bovine chromaffin cell membranes
pKi: −log10 of the molar value.
metric: pKi

Recorded results for 2 molecules are shown here.
>>> testresult("CC1CN=C(NC(C2CC2)C2CC2)C1 (stereo unspecified)")
6.19
>>> testresult("C1CN=C(NC(C2CC2)C2CC2)C1")
6.29

P: CC1CC(NC(C2CC2)C2CC2)=NC1C (stereo unspecified)
Q: C1COC(NC(C2CC2)C2CC2)=N1
R: CC1CCC(NC(C2CC2)C2CC2)=N1 (stereo unspecified)
S: CCC1CCC(NC(C2CC2)C2CC2)=N1 (stereo unspecified)
Lookup: List by increasing pKi. Could you list the labels in the order requested?
Found: R, P, S, Q
(R: 5.80, P: 6.27, S: 6.77, Q: 7.13)
